Test system: A431
Assay: whole-cell filipin (free cholesterol) integrated intensity, Z-score; higher = more cholesterol staining
Details: compound concentration in added solution (µM; 5 µl added to 20 µl cells): 10; 18 h
Structures can show the parent of a compound that is named as a salt.
Parameter: whole-cell filipin (z-score). Scope: all listed entries.
// no unit, no text: just the number

The examples below pair each entry with its known result.
| compound | whole-cell filipin (z-score) |
| --- | --- |
| CN1CCc2cccc3c2[C@H]1Cc1ccc(O)c(O)c1-3 [R(-) Apomorphine hydrochloride hemihydrate] | -0.55 |
| CCn1cc(C(=O)O)c(=O)c2cc(F)c(N3CCNCC3)cc21 | -0.938 |
| CCCN(CCC)CCc1cccc2c1CC(=O)N2 [Ropinirole HCl] | -0.368 |

Next compound, whole-cell filipin (z-score) to be filled in.
Q) Return whole-cell filipin (z-score) (reported value) for this compound: `Clc1ccc2c(c1)C(N1CCNCC1)=Nc1ccccc1O2`
A) 0.789

----------
System: HeLa MZ
Experiment: filipin (cholesterol) integrated intensity within LBPA endosomes, Z-score; higher = more cholesterol in LBPA endosomes
Settings: compound concentration in added solution (µM; 5 µl added to 20 µl cells): 10; 18 h
Counter-ions that a name gives are not always drawn.
attribute-measured: filipin (z-score)
Lab note: jot down the number only; don't add units.

Reference set, count: 2
| compound | measurement-target | attribute-measured | assay-result |
| --- | --- | --- | --- |
| CN(C)CCOC1=Cc2ccccc2Sc2ccc(Cl)cc21 [Zotepine] | HeLa MZ | filipin (z-score) | 1.71 |
| CCN(CC)C(=O)Nc1ccc(OCC(O)CNC(C)(C)C)c(C(C)=O)c1 (centres undefined) [Celiprolol HCl] | HeLa MZ | filipin (z-score) | -0.405 |

Q) Fill in reported filipin (z-score) for this entry: `O=C1C(O)=C([C@H]2CC[C@H](c3ccc(Cl)cc3)CC2)C(=O)c2ccccc21`
A) -0.654

Q) Entry COC(=O)C1=C(C)NC(C)=C(C(=O)OCCN(C)Cc2ccccc2)C1c1cccc([N+](=O)[O-])c1 (centres undefined) [Nicardipine hydrochloride] needs its filipin (z-score) filled in; supply it.
A) 0.881

----------
Test system: HeLa MZ
Assay: LBPA endosome anti-LBPA integrated intensity (sum per cell), Z-score; higher = more LBPA staining
Settings: compound concentration in added solution (µM; 5 µl added to 20 µl cells): 10; 18 h
Counter-ions that a name gives are not always drawn.
attribute-measured: LBPA endosome anti-LBPA integrated intensity (z-score)
Please respond with just the number, no unit label.

| compound | assay-result |
| --- | --- |
| O=C(NCC(O)CO)c1c(I)c(C(=O)NCC(O)CO)c(I)c(N(CCO)C(=O)CO)c1I (centres undefined) | -1.26 |
| Nc1ncnc2c1ncn2[C@@H]1O[C@H](CO)[C@@H](O)[C@@H]1O | 0.0226 |
| CNC(C)CCC=C(C)C (centres undefined) [Isometheptene mucate] | -0.292 |

Q) Quote LBPA endosome anti-LBPA integrated intensity (z-score) reported for COC(=O)[C@@H]1[C@H]2C[C@H]3c4[nH]c5ccccc5c4CCN3C[C@@H]2CC[C@@H]1O [Yohimbine hydrochloride] please.
A) -0.264

Q) Provide measured LBPA endosome anti-LBPA integrated intensity (z-score) value, entry: `CC(=O)Oc1cc(C(F)(F)F)ccc1C(=O)O`
A) -0.553

Q) Quick one: give measured LBPA endosome anti-LBPA integrated intensity (z-score) for `Cn1c(=O)c2c(ncn2CC2OCCO2)n(C)c1=O`
A) 0.313

Q) Assign LBPA endosome anti-LBPA integrated intensity (z-score) to the following record: `O=C1CN(/N=C/c2ccc([N+](=O)[O-])o2)C(=O)N1`
A) -1.22

Q) Quote LBPA endosome anti-LBPA integrated intensity (z-score) reported for Cc1ccc(S(=O)(=O)NC(=O)NN2CC3CCCC3C2)cc1 (centres undefined) [Gliclazide] please.
A) -1.17

Q) Tell me measured LBPA endosome anti-LBPA integrated intensity (z-score) for `CO[C@@H]1[C@@H](O[C@@H]2O[C@H](C)[C@@H](O[C@H]3C[C@@](C)(O)[C@@H](OC(=O)CC(C)C)[C@H](C)O3)[C@H](N(C)C)[C@H]2O)[C@@H](CC=O)C[C@@H](C)[C@@H](O)/C=C/C=C/C[C@@H](C)OC(=O)C[C@H]1OC(C)=O` please.
A) -0.222

Q) Hello, please tell me recorded LBPA endosome anti-LBPA integrated intensity (z-score) for this one: `CC(C)(S)[C@@H](N)C(=O)O`
A) -0.589

Q) Give the value of LBPA endosome anti-LBPA integrated intensity (z-score) reported for the following: `CC[C@]12CCCN3CCc4c(n(c5ccccc45)[C@@](O)(C(=O)OC)C1)[C@@H]32`
A) 0.384

Q) Tell me LBPA endosome anti-LBPA integrated intensity (z-score) reported for O=C1C(O)=C(O)C(=O)C(O)=C1O [Tetrahydroxy-1,4-quinone monohydrate]
A) 0.48

Q) Fill in reported LBPA endosome anti-LBPA integrated intensity (z-score) for this entry: CN1CCOC(c2ccccc2)c2ccccc2C1 (centres undefined) [Nefopam hydrochloride]
A) -0.0559

Q) Read the entry `CC(=O)NC[C@H]1CN(c2ccc(N3CCOCC3)c(F)c2)C(=O)O1` and write its reported LBPA endosome anti-LBPA integrated intensity (z-score).
A) -0.712

----------
Tested on: HeLa MZ
Assay: filipin (cholesterol) integrated intensity within LBPA endosomes, Z-score; higher = more cholesterol in LBPA endosomes
Conditions: compound concentration in added solution (µM; 5 µl added to 20 µl cells): 10; 18 h
Structures can show the parent of a compound that is named as a salt.
// not met strictly below -0.5 in filipin (z-score); met otherwise

Field: example entries. Status: answers known.
| compound | measurement-target | assigned-class |
| --- | --- | --- |
| C[C@H]1NC(=O)NC1=O [Methylhydantoin-5-(D)] | HeLa MZ | met |
| C[C@H]1c2cccc(O)c2C(=O)C2=C(O)[C@]3(O)C(=O)C(C(N)=O)=C(O)[C@@H](N(C)C)[C@@H]3[C@@H](O)[C@@H]21 [Doxycycline hydrochloride] | HeLa MZ | not met |
| Cc1ccc(-c2cc(C(F)(F)F)nn2-c2ccc(S(N)(=O)=O)cc2)cc1 [Celecoxib] | HeLa MZ | met |

Q) Please check the record COc1ccc(Cl)cc1C(=O)NCCc1ccc(S(=O)(=O)NC(=O)NC2CCCCC2)cc1 [Glibenclamide] and state if its filipin (z-score) is at or above -0.5.
A) not met

Q) Textbook exercise: given the entry CCCC(CCC)C(=O)O [Valproic acid] , state whether its filipin (z-score) is greater than or equal to -0.5.
A) met

Q) Could you please find out whether C[C@H](CCC(=O)O)[C@H]1CC[C@H]2[C@@H]3C(=O)C[C@@H]4CC(=O)CC[C@]4(C)[C@H]3CC(=O)[C@]12C [Dehydrocholic acid] has filipin (z-score) that meets -0.5 or exceeds it?
A) not met

Q) Can CCOC(=O)[C@@](C)(N)Cc1ccc(O)c(O)c1 [Methyldopate hydrochloride] be said to have filipin (z-score) at or above -0.5?
A) met

Q) Identify whether the reported filipin (z-score) of the following compound is -0.5 or greater: O=C(O)CCc1nc(-c2ccccc2)c(-c2ccccc2)o1 [Oxaprozin]
A) met

----------
Test system: HeLa MZ
Test: filipin (cholesterol) integrated intensity within LBPA endosomes, Z-score; higher = more cholesterol in LBPA endosomes
Conditions: compound concentration in added solution (µM; 5 µl added to 20 µl cells): 10; 18 h
Where a name gives a salt, the structure may show the parent alone.
Entries and their measured filipin (z-score) follow.
Reply: number alone, nothing else.

| compound | measurement-target | attribute-measured | assay-result |
| --- | --- | --- | --- |
| CC1Cc2ccccc2N1NC(=O)c1ccc(Cl)c(S(N)(=O)=O)c1 (stereo not drawn) [Indapamide] | HeLa MZ | filipin (z-score) | -0.438 |
| CC(=O)Nc1ccc(O)cc1 | HeLa MZ | filipin (z-score) | -0.412 |
| CCC[C@@H]1C[C@@H](C(=O)N[C@@H]([C@H]2O[C@H](SC)[C@H](O)[C@@H](O)[C@H]2O)[C@H](C)Cl)N(C)C1 [Clindamycin hydrochloride] | HeLa MZ | filipin (z-score) | -0.563 |
| CN1C(C(=O)Nc2ccccn2)=C(O)c2ccccc2S1(=O)=O | HeLa MZ | filipin (z-score) | -0.694 |
| COc1ccc([C@@H]2Sc3ccccc3N(CCN(C)C)C(=O)[C@@H]2OC(C)=O)cc1 [Diltiazem hydrochloride] | HeLa MZ | filipin (z-score) | -0.144 |

Q) Assign filipin (z-score) to the following record: `CC(=O)[C@H]1CC[C@H]2[C@@H]3CCC4=CC(=O)CC[C@]4(C)[C@H]3CC[C@]12C`
A) 0.759

Q) Look up and state reported filipin (z-score) for CC(O)(P(=O)(O)O)P(=O)(O)O [Etidronic acid, disodium salt]
A) -0.4

Q) Supply measured filipin (z-score) of NS(=O)(=O)c1cc(C(=O)O)cc(N2CCCC2)c1Oc1ccccc1 [Piretanide] in your reply.
A) -0.576

Values compiled from the supplement of paper PMC6607015.
